Molecular target: HIV-1 Env of isolate MGRM-F1-017 (subtype F) (HIV-1)
Assay: cell-based or functional assay
Readout Label: IC50 (neutralization) (µg/mL)

>>> readout_number("PGT-128 (antibody, V domains shown) VH: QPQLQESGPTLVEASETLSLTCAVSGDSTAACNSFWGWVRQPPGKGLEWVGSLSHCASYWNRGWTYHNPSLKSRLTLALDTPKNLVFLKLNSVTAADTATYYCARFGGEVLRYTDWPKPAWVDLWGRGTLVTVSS VL: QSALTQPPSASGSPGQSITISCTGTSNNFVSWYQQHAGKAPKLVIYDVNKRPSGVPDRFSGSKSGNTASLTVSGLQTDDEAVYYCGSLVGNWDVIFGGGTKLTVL")
11.7
